Below, each of the compounds is paired with its reported Percent Effect value.
Biological target: Chromo domain-containing protein 1 (Saccharomyces cerevisiae (strain ATCC 204508 / S288c) (Baker's yeast))
Assay: ScCHD-1 Enzyme Inhibition Assay; also: in the data most compounds retested in dose-response had high values
Format: functional
Design: scale not given: direction of the effect not stated beside the values
Settings: 30 µM

| compound | Percent Effect, % |
| --- | --- |
| CCN(Cc1nc2c(cnn2C)c(=O)[nH]1)Cc1cccs1 | -21.1 |
| CC(=O)N1CCN(C(=O)CN2CCc3c(ncn3C3CC3)C2)CC1 | -19.7 |
| CCCN(CC)C(=O)c1cc2c(c3ccccc3n2C)n1C(=O)N(C)C | -0.293 |
| COc1cccc2c1OCC(NC(=O)NC1CCN(C3CC3)CC1)C2 (stereo unspecified) | -0.292 |
| O=C(CCc1cccc(F)c1F)N1CCN(Cc2ccco2)CC1 | -2.5 |
| CC(C)c1n[nH]c(C2CN(C(=O)CCCn3cccn3)CCO2)n1 (stereo unspecified) | 0.954 |

###

Molecular target: Protein translocase subunit SecA (Escherichia coli (strain K12))
Assay: Assay to Identify E. coli SecA ATPase Inhibitors
Assay type: functional
Parameters: scale not given: direction of the effect not stated beside the values
Conditions: 30 µM
Entries with a potency or affinity are not part of this list.
Below: a set of entries, each annotated with reported Percent Effect.

| compound | Percent Effect (%) |
| --- | --- |
| O=C(NCCOc1ccc2c(c1)OCO2)N1CCC1 | -4.13 |
| Cc1csc(N2CCN(C(=O)CCc3nccs3)CC2)n1 | -6.78 |
| CN1CC(=O)N(c2ccsc2)CC12CCN(C(=O)c1ccccc1)C2 (configuration not stated) | -4.65 |
| CCCSCC(=O)NS(=O)(=O)c1ccc2c(c1)OCCO2 | -2.66 |
| Cc1cc(CNC(=O)N2CCCN(Cc3ccccc3)CC2)no1 | -3.91 |
| O=C(NCCCN1CCc2ccccc2C1)c1cccnc1O | -1.75 |
| Cc1ccc(F)cc1C(=O)N1C[C@@H](CN2CCOCC2)[C@@H](CO)C1 | -9.2 |
| Cc1csc(Nc2cc(C3CCCCN3C)nc(C)n2)n1 (configuration not stated) | 1.97 |
| CC(C)CNC(=O)c1c(-n2cnnn2)sc2c1CCC2 | -4.85 |
| CCOc1ccccc1CSc1nnc(CC2CCS(=O)(=O)C2)n1C (configuration not stated) | -2.9 |
| Cc1nnc(N2CCCC3(CN(Cc4ccc(C)s4)CCO3)C2)o1 (configuration not stated) | 0.137 |
| CN(C(=O)NCc1ccncc1)C1CCN(c2ccccc2)C1=O (configuration not stated) | -4.85 |

###

Biological target: Tyrosyl-tRNA synthetase, putative (Trypanosoma cruzi (strain CL Brener)) (UniProt Q4DSP6)
Sequence (Q4DSP6 as listed by the source): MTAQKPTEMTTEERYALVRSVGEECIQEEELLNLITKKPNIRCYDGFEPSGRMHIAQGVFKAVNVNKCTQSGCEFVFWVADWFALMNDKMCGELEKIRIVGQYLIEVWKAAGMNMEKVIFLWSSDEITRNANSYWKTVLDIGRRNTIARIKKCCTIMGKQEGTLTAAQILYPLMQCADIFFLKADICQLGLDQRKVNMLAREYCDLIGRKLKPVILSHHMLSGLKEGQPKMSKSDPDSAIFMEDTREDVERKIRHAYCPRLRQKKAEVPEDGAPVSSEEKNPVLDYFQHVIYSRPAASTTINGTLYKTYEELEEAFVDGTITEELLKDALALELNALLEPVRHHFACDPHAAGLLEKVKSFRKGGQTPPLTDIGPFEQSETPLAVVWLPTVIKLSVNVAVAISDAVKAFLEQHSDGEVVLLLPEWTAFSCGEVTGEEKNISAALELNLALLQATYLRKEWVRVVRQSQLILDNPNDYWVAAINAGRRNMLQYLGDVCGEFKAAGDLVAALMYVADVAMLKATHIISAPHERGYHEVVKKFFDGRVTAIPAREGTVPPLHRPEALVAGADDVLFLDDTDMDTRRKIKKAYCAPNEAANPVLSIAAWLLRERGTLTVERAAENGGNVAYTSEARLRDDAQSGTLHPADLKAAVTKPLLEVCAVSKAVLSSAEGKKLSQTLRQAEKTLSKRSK
Experiment: Trypanosoma cruzi tyrosyl tRNA synthetase (TcYRS) SOP
Type: functional
Parameters: scale not given: direction of the effect not stated beside the values
Details: 30 µM
Item-by-item account of Percent Effect
endpoint: Percent Effect (%)

| molecule | result number |
| --- | --- |
| O=C(NCC1CC1)C1CCC2(CCN(C(=O)c3ccccn3)CC2)O1 (centres undefined) | -10 |
| Nc1nccc(NCc2cc3n(n2)CCCN(C(=O)C2CCC2)C3)n1 | 11.1 |
| CN1CCc2onc(CNc3ncccn3)c2C1 | 5 |
| CCC(CNC(=O)c1ccc(Br)o1)N1CCc2ccccc2C1 (centres undefined) | -4.88 |
| CC(C)CCN(C)C(=O)c1nc(S(C)(=O)=O)n2ccccc12 | 10.8 |
| Cc1ccc2c(n1)N(C)CCN(C(=O)C1CC1)C2 | 17.5 |
| C[C@@H]1C(=O)NC[C@H]2CN(CCc3ccccc3)C[C@H]21 | 20 |
| O=C(CC1CC1)N1CCn2cc(Cn3cncn3)nc2C1 | 11.5 |
| Fc1ccccc1-c1noc2c1CN(CC1CC1)CC2 | 20 |
| O=C(NCC1CCOC1)c1ccc(OCC(F)(F)F)nc1 (centres undefined) | 10.8 |
| CS(=O)(=O)NC[C@]12COC[C@H]1CN(C(=O)c1ccoc1)C2 | 11.5 |
| Cc1cc(C)c(CNC(=O)NCC(O)COc2ccccc2)c(=O)[nH]1 (centres undefined) | -1.24 |
| C[C@@H]1CN(C2(C(=O)N3CCOCC3)Cc3ccccc3C2)C[C@H](C)O1 | 7.69 |
| c1cnc(-c2nc(CN3CCOC(Cn4cncn4)C3)cs2)nc1 (centres undefined) | 13.6 |
| CCc1cc(N2CCSCC2)n2nc(C)c(C)c2n1 | 6.17 |
| Cc1occc1C(=O)N1CCC2(CCC(C(=O)NCC3CC3)O2)CC1 (centres undefined) | 20 |
| CC(C)(C)c1nnc(CN2CCn3c(nnc3C3CC3)C2)o1 | 2.56 |
| CCc1n[nH]c(C2CN(CC(=O)NCCc3ccsc3)CCO2)n1 (centres undefined) | 5 |
| CC(C)(C)c1cn2nc(N3CCC[C@@H]3CO)sc2n1 | 13.2 |
| O=C(c1ccc(C(F)(F)F)nc1)N1CCCC(n2cncn2)C1 (centres undefined) | 1.21 |
| Cc1cnn(CCC(=O)N2CCN(c3nc(C)cs3)CC2)c1 | 24.1 |
| CCN(CC)C(CNC(=O)c1ccc(S(C)(=O)=O)cc1)c1ccco1 (centres undefined) | 11 |
| Nc1nc(CCC(=O)N2CCOC(CC3CCCCC3)C2)cs1 (centres undefined) | 19.5 |
| O=C1O[C@@H]2CN(Cc3ccccc3)C[C@@H]2N1CCCN1CCOCC1 | 11.1 |

###

Reported Percent Effect values are given for each entry in this list.
Molecular target: Tyrosyl-tRNA synthetase, putative (Trypanosoma cruzi (strain CL Brener)) (UniProt Q4DSP6)
Assay: Trypanosoma cruzi tyrosyl tRNA synthetase (TcYRS) _High Tyrosine SOP; also: in the data most compounds retested in dose-response had high values
Type: functional
Set-up: scale not given: direction of the effect not stated beside the values
Settings: 30 µM

| molecule | value units | Percent Effect |
| --- | --- | --- |
| Cc1nc(C)n(CC2CCCN2Cc2nc(N)c3ccccc3n2)n1 (stereo unspecified) | % | 6.84 |
| CC(Oc1ccccc1C(F)(F)F)C(=O)NS(=O)(=O)C(C)C (stereo unspecified) | % | 6.93 |
| COc1ccccc1-c1cc(C(F)(F)F)c2c(C)nn(CC(=O)O)c2n1 | % | -13.8 |
| CCS(=O)(=O)N1C[C@H]2CCC[C@@]2(COc2ccccn2)C1 | % | 2.12 |
| Cc1cc(C)n(-c2cncc(NCCNC(=O)CC3CCCC3)n2)n1 | % | 1.07 |
| CS(=O)(=O)NCc1ncn2c1CN(C(=O)CC1CCCC1)CCC2 | % | 1.58 |
| Cc1cc(NS(=O)(=O)c2ccccc2F)ccc1-n1cccc1C(=O)O | % | -4.25 |
| CCOc1ccccc1OC1CCN(C(=O)c2nc(=O)[nH][nH]2)CC1 | % | 6.37 |
| CSCc1nc(C(C)(C)NC(=O)OC(C)(C)C)no1 | % | -0.546 |
| CCn1cc(CN(C)S(=O)(=O)c2cnn(CC)c2C)c(C)n1 | % | 2.12 |
| CC(Cn1cccn1)NC(=O)NCc1ccc(S(N)(=O)=O)cc1 (stereo unspecified) | % | 9.52 |

###

Molecular target: AMP-activated protein kinase, AMPK (Homo sapiens) (UniProt P54646+O43741+P54619+Q9UGJ0+Q9Y478+Q13131+Q9UGI9)
Assay: AMP-dependent Kinase enzyme assay. An in vitro enzyme assay that detects ADP turnover that is directly proportional to AMPK activity. This uses naive AMPK that is activated during the assay with MK-8722
Assay type: functional
Set-up: scale not given: direction of the effect not stated beside the values
Conditions: 30 µM

| molecule | Percent Effect / % |
| --- | --- |
| CC(C)CCC(C)NC(=O)c1ccc(OCC(N)=O)cc1 (configuration not stated) | -4.08 |
| Cc1cc(CN2CCN(c3nn4cc(C)nc4s3)CC2)on1 | 4.65 |
| CC(Cn1cccn1)NC(=O)CCc1ccc(S(N)(=O)=O)cc1 (configuration not stated) | -0.578 |
| COc1ncnc2c1CCN(c1cc(C(F)(F)F)ncn1)CC2 | 4.03 |
| CC(C)c1nc(CN2CCN(CC3CCCO3)CC2)cs1 (configuration not stated) | -7.85 |
| Cc1noc(CN2CCN(Cc3cccs3)CC2)n1 | 3.17 |
| COc1ccc(OCC(=O)NC(C)c2ccc(F)cc2)c(C(=O)O)c1 (configuration not stated) | 1.14 |
| O=C(Cc1ccccc1F)N1CCN(C(=O)c2cccc(F)c2)CC1 | -4.8 |
| COc1c(C2CCCN2C(=O)c2cccc(C(N)=O)c2)c(C)nn1C (configuration not stated) | 7.89 |
| Cc1cc(CNC2CCCN(c3cccnn3)C2)no1 (configuration not stated) | -12.2 |
| Cc1cnn(CCNCC(=O)NCC2(c3ccccc3)CCC2)c1 | 0.236 |
| Cc1cnn(CC2CCCCN2Cc2nnc(-c3ccco3)o2)c1 (configuration not stated) | -9.36 |
